- System: NCI-H322M lung
- ASSAY NAME: NCI-60 one-dose screen, 48 h (100 = growth as untreated, 0 = no growth, -100 = all killed)
- RUN CONDITIONS: 10 µM unless noted
This is part of a sample that, as a whole, favours compounds with a hit. Of some 83,000 tested, about 20% had one in any assay.

[
  {
    "COMPOUND": "CCNC(=O)Oc1ccc[nH]c1=O",
    "STUDY SYSTEM": "NCI-H322M lung",
    "growth [%]": 102
  },
  {
    "COMPOUND": "Clc1cccc(Cl)c1CSc1nc2ccccc2n2cccc12",
    "STUDY SYSTEM": "NCI-H322M lung",
    "growth [%]": 71.8
  },
  {
    "COMPOUND": "CCOC(OCC)C(=O)c1ccccc1",
    "STUDY SYSTEM": "NCI-H322M lung",
    "growth [%]": 100
  },
  {
    "COMPOUND": "Nc1ccn(C2CC(N)C(CO)O2)c(=O)n1 (stereo not drawn)",
    "STUDY SYSTEM": "NCI-H322M lung",
    "growth [%]": 96.6
  },
  {
    "COMPOUND": "CCOC(=O)CSCCC#N",
    "STUDY SYSTEM": "NCI-H322M lung",
    "growth [%]": 101
  },
  {
    "COMPOUND": "COC(=O)Cc1cc(COC(C)=O)ccc1C",
    "STUDY SYSTEM": "NCI-H322M lung",
    "growth [%]": 110
  },
  {
    "COMPOUND": "Cc1cc(Nc2ccc3c(c2)OCO3)c2cc3c(cc2n1)OCO3",
    "STUDY SYSTEM": "NCI-H322M lung",
    "growth [%]": 57.5
  },
  {
    "COMPOUND": "Cc1ccc(O)c(N)c1",
    "STUDY SYSTEM": "NCI-H322M lung",
    "growth [%]": 98.1
  },
  {
    "COMPOUND": "Cc1cc(Cl)cc(Cc2cc(Cl)cc(C)c2O)c1O",
    "STUDY SYSTEM": "NCI-H322M lung",
    "growth [%]": 18.1
  },
  {
    "COMPOUND": "Cc1[nH]c(=S)[nH]c(=O)c1C",
    "STUDY SYSTEM": "NCI-H322M lung",
    "growth [%]": 114
  },
  {
    "COMPOUND": "O=C(c1cccc(C(=O)c2ccc3c4c(cccc24)C(=O)N(c2ccccc2)C3=O)c1)c1ccc2c3c(cccc13)C(=O)N(c1ccccc1)C2=O",
    "STUDY SYSTEM": "NCI-H322M lung",
    "growth [%]": 113
  },
  {
    "COMPOUND": "O=C1C=C(c2ccccc2)C(O)(c2ccccc2)C1 (stereo not drawn)",
    "STUDY SYSTEM": "NCI-H322M lung",
    "growth [%]": 106
  },
  {
    "COMPOUND": "O=[n+]1ccn([O-])c2ccccc21",
    "STUDY SYSTEM": "NCI-H322M lung",
    "growth [%]": 104
  }
]

----------
Collected growth values appear next to each entry.
- Test system: UACC-257 melanoma
- ASSAY NAME: NCI-60 one-dose screen, 48 h (100 = growth as untreated, 0 = no growth, -100 = all killed)
- RUN CONDITIONS: 10 µM unless noted
Compounds without any hit were thinned out: in the full panel of roughly 83,000, 20% have a hit.

[
  {
    "COMPOUND": "C/C(Cc1ccccc1)=N\\O",
    "growth (%)": 107
  },
  {
    "COMPOUND": "COc1cccc2c1Cc1ccccc1-2",
    "growth (%)": 102
  },
  {
    "COMPOUND": "CCCCn1cnc2c(=O)[nH]cnc21",
    "growth (%)": 121
  },
  {
    "COMPOUND": "CCCCOC(=O)c1ccccc1O",
    "growth (%)": 99.4
  },
  {
    "COMPOUND": "COc1cc(N)c2ncccc2c1Cl",
    "growth (%)": 109
  },
  {
    "COMPOUND": "S=c1nc(-c2ccccn2)c(-c2ccccn2)n[nH]1",
    "growth (%)": 107
  },
  {
    "COMPOUND": "CC(C)c1ccccc1NC(=O)N1CCC(C(C)C)CC1",
    "growth (%)": 95.8
  },
  {
    "COMPOUND": "COc1c(CNC(=O)CCl)cc2[nH]c(C)cc2c1CNC(=O)CCl",
    "growth (%)": 51.9
  },
  {
    "COMPOUND": "C/C=C/C1OCC(CC)C(CCC)O1 (centres undefined)",
    "growth (%)": 93.5
  },
  {
    "COMPOUND": "CCOP(=O)(OCC)/C(=C\\N1C(=O)CC(=O)NC1=S)C(=O)OC",
    "growth (%)": 101
  },
  {
    "COMPOUND": "C(=C\\c1ccncc1)/c1ccncc1",
    "growth (%)": 108
  },
  {
    "COMPOUND": "CCCCCC(=O)OCCC1CCCCC1",
    "growth (%)": 95.9
  },
  {
    "COMPOUND": "CSc1nsc(N)n1",
    "growth (%)": 99.9
  },
  {
    "COMPOUND": "CCOC(=O)N[C@H]1CCc2cc(OC)c(OC)c(OC)c2-c2ccc(SC)c(=O)cc21",
    "growth (%)": 71
  }
]

----------
- Tested on: HOP-62 NSCLC
- ASSAY NAME: NCI-60 one-dose screen, 48 h (100 = growth as untreated, 0 = no growth, -100 = all killed)
- RUN CONDITIONS: 10 µM unless noted
About 83,000 compounds went through this panel and 20% of them were active in at least one assay; those are over-represented in the sample as a whole.

[
  {
    "COMPOUND": "O=C(O)Cc1ccccn1",
    "growth / %": 109
  },
  {
    "COMPOUND": "NC(=O)NCCO",
    "growth / %": 102
  },
  {
    "COMPOUND": "CC(C)N(CCCC#N)C(C)C",
    "growth / %": 98.6
  },
  {
    "COMPOUND": "NC(=O)N1CCOCC1",
    "growth / %": 95.4
  },
  {
    "COMPOUND": "CCN(CC)CCCC(C)NC(=S)N/N=C(\\C)c1ccccn1 (stereo not given)",
    "growth / %": 45.4
  },
  {
    "COMPOUND": "COC(=O)c1cccc([N+](=O)[O-])c1",
    "growth / %": 79.4
  },
  {
    "COMPOUND": "COc1cc(N)c2ncccc2c1Cl",
    "growth / %": 102
  },
  {
    "COMPOUND": "CC1(C)CC(=O)C=C(N)C1",
    "growth / %": 103
  },
  {
    "COMPOUND": "C1CCc2onc(-c3noc4c3CCCCC4)c2CC1",
    "growth / %": 101
  },
  {
    "COMPOUND": "CCOc1ccc(C(=O)O)cc1",
    "growth / %": 105
  },
  {
    "COMPOUND": "CCN(CC)CCOC(=O)Nc1c(C(C)C)cccc1C(C)C",
    "growth / %": 104
  },
  {
    "COMPOUND": "Oc1cccnc1CN1CCCC1",
    "growth / %": 111
  },
  {
    "COMPOUND": "Cc1cccc2ccccc12",
    "growth / %": 102
  },
  {
    "COMPOUND": "N#C/C(=C\\NC(=S)N=Nc1c(O)[nH]c2ccccc12)c1nc2ccccc2s1",
    "growth / %": 95.4
  },
  {
    "COMPOUND": "CC1(C)C2CCC1(C)C1(C2)OCCS1 (stereo not given)",
    "growth / %": 101
  }
]

----------
// growth lookup, one value per entry
- System: U251 CNS
- ASSAY NAME: NCI-60 one-dose screen, 48 h (100 = growth as untreated, 0 = no growth, -100 = all killed)
- RUN CONDITIONS: 10 µM unless noted
The panel holds about 83,000 compounds, 20% with a hit somewhere; the sample as a whole holds those more often.

[
  {
    "COMPOUND": "Cc1ccc[n+](CCC(N)=O)c1",
    "growth (%)": 87.4
  },
  {
    "COMPOUND": "Nc1nc2nnc(-c3ccccc3)c(-c3ccccc3)n2n1",
    "growth (%)": 111
  },
  {
    "COMPOUND": "CC(=O)OCC1OC(n2cnc3c(=S)nc(N)[nH]c32)C(OC(C)=O)C1OC(C)=O (stereo not drawn)",
    "growth (%)": 93.1
  },
  {
    "COMPOUND": "O=[N+]([O-])c1c(Cl)ncnc1Cl",
    "growth (%)": 95.9
  },
  {
    "COMPOUND": "CC(=O)Nc1ccc(/C=C2\\SC(=S)N(/C=C(\\C(C)=O)C(N)=O)C2=O)cc1",
    "growth (%)": 90.3
  },
  {
    "COMPOUND": "COc1ccc(Nc2cc(Cl)ccc2C(=O)O)cn1",
    "growth (%)": 105
  },
  {
    "COMPOUND": "CCOC(=O)c1ccc(NC(=O)Nc2nccs2)cc1",
    "growth (%)": 12.5
  },
  {
    "COMPOUND": "N#CCCN1C(=O)CCC1C(=O)O (stereo not drawn)",
    "growth (%)": 101
  },
  {
    "COMPOUND": "NC(=S)c1c(N)n(C2OC(CO)C(O)C2O)c2ncnc(N)c12 (stereo not drawn)",
    "growth (%)": 17.3
  },
  {
    "COMPOUND": "Oc1ccc2ccccc2c1CN1CCOCC1",
    "growth (%)": 110
  },
  {
    "COMPOUND": "CC(=O)c1cccc(NS(=O)(=O)c2ccc(C)cc2)c1",
    "growth (%)": 61.2
  },
  {
    "COMPOUND": "Cc1ccc(N)c(S(=O)(=O)O)c1",
    "growth (%)": 104
  },
  {
    "COMPOUND": "CCC(/C=C\\C(C)=O)CC",
    "growth (%)": 96.6
  }
]
